procedure.details: In vivo toxic effect was determined in mouse after oral administration with 10% aqueous acacia gum;Value ranges from(5.68-7.37)
Type: toxicity, organism-based

# structure.string, LD50 [µmol/kg]
measured = [
    ("COc1cccc(NC(=O)CCN2CCN(c3ccccn3)CC2)c1.Cl.Cl", 7100),
]

###

procedure.details: In vivo toxic effect was determined in mouse after oral administration with 10% aqueous acacia gum; value ranges from 0.50-0.68
Format: toxicity, organism-based

# structure.string, LD50 / µmol/kg
records = [
    ("CN1CCC(=C2c3ccccc3CC(=O)c3sccc32)CC1", 580),
]

###

procedure.details: In vivo toxic effect was determined in mouse after intraperitoneal administration with 10% aqueous acacia gum; value ranges from 1.35-1.82
Format: toxicity, organism-based
particulars: ip

# compound, LD50 [µmol/kg]
measured = [
    ("COC(=O)CC(C)N1CCN(c2ccccn2)CC1.O=C(O)/C=C\\C(=O)O.O=C(O)/C=C\\C(=O)O (stereo unspecified)", 1350),
]
